experiment: Aqueous solubility of the compound at pH 6.5; format: physicochemical
Recorded solubility by entry

| smiles | u | solubility |
| --- | --- | --- |
| COCCc1nc2nc(C)cc(Nc3ccc(C(F)(F)F)cc3)n2n1 | µM | 71 |
| COCc1nc2nc(C)cc(Nc3ccc(C(F)(F)F)cc3)n2n1 | µM | 150 |
| Cc1cc(Nc2ccc(C(F)(F)F)cc2)n2nc(C(C)(F)F)nc2n1 | µM | 70 |
| CCc1nc2nc(C)cc(Nc3ccc(C(F)(F)F)cc3)n2n1 | µM | 39 |
| COCCc1nc2nc(C)cc(Nc3ccc(S(F)(F)(F)(F)F)cc3)n2n1 | µM | 31 |
| CCc1nc2nc(C)cc(Nc3cccc(Cl)c3)n2n1 | µM | 170 |

* * *

experiment: Cmax in human RBC engrafted NOD-SCID IL-2Rgamma-null mouse infected with Plasmodium falciparum 3D7 0087/N9 at 10 mg/kg, po; assay type: ADME, organism-based; parameters: dose 10 mg/kg, route oral; settings: in vivo

| smiles | u | Cmax |
| --- | --- | --- |
| Cc1cc(Nc2cc(F)c(C(F)(F)F)c(F)c2)n2ncnc2n1 | µM | 8.2 |

* * *

assay: Cmax in Sprague-Dawley rat at 46.7 mg/kg, po; assay type: ADME, organism-based; design: dose 46.7 mg/kg, route oral; settings: in vivo

| smiles | Cmax (µM) |
| --- | --- |
| Cc1cc(Nc2ccc(S(F)(F)(F)(F)F)cc2)n2nc(C(C)(F)F)nc2n1 | 6.4 |

* * *

test: Volume of distribution in Sprague-Dawley rat at 4.5 mg/kg, iv; assay type: ADME, organism-based; parameters: dose 4.5 mg/kg, route intravenous; settings: in vivo
reported endpoint: Vd (L/kg)

| smiles | u | result value |
| --- | --- | --- |
| Cc1cc(Nc2ccc(C(F)(F)F)cc2)n2nc(C(C)(F)F)nc2n1 | L/kg | 2.9 |

* * *

test: AUC (0 to infinity) in Sprague-Dawley rat at 2 mg/kg, po; type: ADME, organism-based; set-up: time infinity, dose 2 mg/kg, route oral; details: plasma
reported endpoint: AUC(0-inf) (µM·h)

| smiles | reported endpoint | result value |
| --- | --- | --- |
| Cc1cc(Nc2ccc(C(F)(F)F)cc2)n2nc(C(C)(F)F)nc2n1 | AUC(0-inf) | 3.88 |

* * *

Recorded pEC50 by entry
system: Plasmodium falciparum; experiment: Antimalarial activity against Plasmodium falciparum 3D7 by [3H]hypoxanthine incorporation assay in presence of human serum; format: functional, organism-based
pEC50: −log10 of the molar value.
reported endpoint: pEC50

| smiles | sign qualifier | result value |
| --- | --- | --- |
| Cc1cc(Nc2ccc(Cl)cc2)n2nc(CO)nc2n1 | < | 5.60 |
| CSc1nc2nc(C)cc(Nc3ccc(S(F)(F)(F)(F)F)cc3)n2n1 | = | 7.49 |
| CCC(F)(F)c1nc2nc(C)cc(Nc3cccc(Cl)c3)n2n1 | = | 5.92 |
| Cc1cc(Nc2cccc(Cl)c2)n2nc(C(C)C)nc2n1 | = | 5.96 |
| CCc1nc2nc(C)cc(Nc3ccc(S(F)(F)(F)(F)F)cc3)n2n1 | = | 7.00 |
| COCCc1nc2nc(C)cc(Nc3ccc(S(F)(F)(F)(F)F)cc3)n2n1 | = | 5.30 |
| Cc1cc(Nc2ccc(C(F)(F)F)cc2)n2nc(CC3CC3)nc2n1 | = | 5.47 |
| CCC(F)(F)c1nc2nc(C)cc(Nc3ccc(C(F)(F)F)cc3)n2n1 | = | 7.35 |
| CCC(F)(F)c1nc2nc(C)cc(Nc3ccc(S(F)(F)(F)(F)F)cc3)n2n1 | = | 6.26 |
| Cc1cc(Nc2ccc(S(F)(F)(F)(F)F)cc2)n2nc(C(C)(C)C)nc2n1 | = | 5.64 |
| Cc1cc(Nc2ccc(C(F)(F)F)cc2)n2nc(C3CC3)nc2n1 | = | 6.82 |

The measurements presented in this section are drawn from ChEMBL document CHEMBL1955725.
